Data origin: ChEMBL document CHEMBL1129018

# Assay Method Text: Compound was tested for binding activity against N-methyl-D-aspartic acid(NMDA) receptor in rat brain crude synaptic membranes
# Format: cell membranes
Reported Endpoint: pIC50
Keep in mind that pIC50 stands for -log10 of concentration in molar terms.

INPUT: What does the data say about its pIC50? Entry: O=C(O)[C@@H]1C[C@H](CP(=O)(O)O)CCN1 (stereo in doubt; form 2) [SELFOTEL]
OUTPUT: 7.54

INPUT: Would you kindly share the measured pIC50 for O=C(O)[C@@H]1C[C@H](CP(=O)(O)O)CCN1 (stereo in doubt) [SELFOTEL] ?
OUTPUT: 5.00

INPUT: Give its pIC50 value. Item: O=C(O)[C@@H]1C[C@H](CP(=O)(O)O)CCN1 (stereo in doubt; form 1) [SELFOTEL]
OUTPUT: 7.16
